- assay_system: T1, human ASGR-1 (on CHO-S cells) (human, UniProt P07306)
- T1 chain: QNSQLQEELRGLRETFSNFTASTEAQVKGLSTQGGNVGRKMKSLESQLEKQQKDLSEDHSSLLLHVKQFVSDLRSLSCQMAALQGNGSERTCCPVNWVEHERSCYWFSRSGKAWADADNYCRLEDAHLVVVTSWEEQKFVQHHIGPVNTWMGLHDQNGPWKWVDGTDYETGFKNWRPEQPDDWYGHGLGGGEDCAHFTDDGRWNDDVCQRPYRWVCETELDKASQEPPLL
- measurement_notes: competition, FACS, GalNAc-PAA
Can you tell me IC50 for the items I'm about to list?
Return type: number; implicit unit nM.

Recorded IC50 for 4A2 (antibody, V domains shown) VH: QVQLVQSGTEVKKPGASVKVSCKASGYTFTNYDINWVRQATGQGLEWMGWMHPNSGNTGYAQKFQGRVTLTRDTSISTAYMELSSLRSEDTAVYYCASSSGWYYFDYWGQGTLVTVSS VL: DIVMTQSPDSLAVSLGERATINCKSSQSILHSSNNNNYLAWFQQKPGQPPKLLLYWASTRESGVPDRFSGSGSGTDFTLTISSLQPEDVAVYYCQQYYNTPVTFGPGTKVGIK , please? 54

Next binder up: 22G5 (antibody, V domains shown) VH: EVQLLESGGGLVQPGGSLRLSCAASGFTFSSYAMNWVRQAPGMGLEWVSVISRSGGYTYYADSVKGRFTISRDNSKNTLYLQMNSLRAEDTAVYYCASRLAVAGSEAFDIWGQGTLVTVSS VL: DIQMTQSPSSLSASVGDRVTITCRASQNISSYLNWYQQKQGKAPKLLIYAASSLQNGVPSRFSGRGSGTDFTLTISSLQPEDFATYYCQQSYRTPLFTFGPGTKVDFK 11

Please answer likewise for 176H4 (antibody, V domains shown) VH: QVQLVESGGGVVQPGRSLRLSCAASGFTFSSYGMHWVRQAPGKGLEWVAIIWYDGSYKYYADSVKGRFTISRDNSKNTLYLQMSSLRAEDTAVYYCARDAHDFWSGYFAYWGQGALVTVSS VL: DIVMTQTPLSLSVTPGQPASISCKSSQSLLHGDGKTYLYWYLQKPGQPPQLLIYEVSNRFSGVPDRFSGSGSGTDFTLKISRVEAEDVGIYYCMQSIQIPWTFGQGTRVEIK 73
